Would you mind telling me the reported membrane partition coefficient KP (KP x 10^3) of each entry?
assay: Vesicle; KP from the fits; settings: DMPC/PG vesicles (MST); buffer
Residues, ends and D or L forms follow the SMILES beside them.

Please review the entries below; each comes with its answer.
{"Molecule": "NCCCC[C@@H]1NC(=O)[C@H](CCCCN)NC(=O)[C@H](Cc2c[nH]c3ccccc23)NC(=O)[C@H](Cc2c[nH]c3ccccc23)NC(=O)[C@H](Cc2c[nH]c3ccccc23)NC(=O)[C@H](CCCCN)NC1=O [compound 3] (cyclo(WWWKKK))", "Experimental Result": "11.05 ± 4.49 x10^3"}
{"Molecule": "N=C(N)NCCC[C@@H]1NC(=O)[C@H](CCCNC(=N)N)NC(=O)[C@H](Cc2c[nH]c3ccccc23)NC(=O)[C@H](Cc2c[nH]c3ccccc23)NC(=O)[C@H](Cc2c[nH]c3ccccc23)NC(=O)[C@H](CCCNC(=N)N)NC1=O [compound 1] (cyclo(WWWRRR))", "Experimental Result": "7.73 ± 1.58 x10^3"}

The molecule listed as NCCCC[C@@H]1NC(=O)[C@H](Cc2c[nH]c3ccccc23)NC(=O)[C@H](CCCCN)NC(=O)[C@H](Cc2c[nH]c3ccccc23)NC(=O)[C@H](CCCCN)NC(=O)[C@H](Cc2c[nH]c3ccccc23)NC1=O [compound 4] (cyclo(WKWKWK)) shows membrane partition coefficient KP (KP x 10^3) equal to 14.90 ± 4.84 x10^3

----------
test: SPR; KP from the fits; conditions: DMPC/PG bilayer on SPR chip; buffer
Residues, ends and D or L forms follow the SMILES beside them.
Readout: membrane partition coefficient KP (KP x 10^3)

Illustrative cases are given below, each with its answer.
{"Compound": "N=C(N)NCCC[C@@H]1NC(=O)[C@H](CCCNC(=N)N)NC(=O)[C@H](Cc2c[nH]c3ccccc23)NC(=O)[C@H](Cc2c[nH]c3ccccc23)NC(=O)[C@H](Cc2c[nH]c3ccccc23)NC(=O)[C@H](CCCNC(=N)N)NC1=O [compound 1] (cyclo(WWWRRR))", "Experimental Result": "12.71 ± 0.16 x10^3"}
{"Compound": "N=C(N)NCCC[C@@H]1NC(=O)[C@H](Cc2c[nH]c3ccccc23)NC(=O)[C@H](CCCNC(=N)N)NC(=O)[C@H](Cc2c[nH]c3ccccc23)NC(=O)[C@H](CCCNC(=N)N)NC(=O)[C@H](Cc2c[nH]c3ccccc23)NC1=O [compound 2] (cyclo(WRWRWR))", "Experimental Result": "3.16 ± 0.15 x10^3"}
{"Compound": "NCCCC[C@@H]1NC(=O)[C@H](Cc2c[nH]c3ccccc23)NC(=O)[C@H](CCCCN)NC(=O)[C@H](Cc2c[nH]c3ccccc23)NC(=O)[C@H](CCCCN)NC(=O)[C@H](Cc2c[nH]c3ccccc23)NC1=O [compound 4] (cyclo(WKWKWK))", "Experimental Result": "0.63 ± 0.03 x10^3"}

Consider the record given below.
Entry under test: NCCCC[C@@H]1NC(=O)[C@H](CCCCN)NC(=O)[C@H](Cc2c[nH]c3ccccc23)NC(=O)[C@H](Cc2c[nH]c3ccccc23)NC(=O)[C@H](Cc2c[nH]c3ccccc23)NC(=O)[C@H](CCCCN)NC1=O [compound 3] (cyclo(WWWKKK)) . Its membrane partition coefficient KP (KP x 10^3) was 5.16 ± 0.34 x10^3
